Data origin, for the record: paper PMC12511343

B1: 4-Met substituted E. coli Cir (colicin Ia receptor), the paper's wildtype (WT) Cir [E. coli] / Microcin V (MccV), mature, wildtype [modified: biotinylated (EZ-Link Sulfo-NHS-LC kit) for BLI and ELISA; not labelled for … (parent)
chain 1: VDDDGETMVVTASSVEQNLKDAPASISVITQEDLQRKPVQNLKDVLKEVPGVQLTNEGDNRKGVSIRGLDSSYTLILVDGKRVNSRNAVFRHNDFDLNWIPVDSIERIEVVRGPMSSLYGSDALGGVVNIITKKIGQKWSGTVTVDTTIQEHRDRGDTYNGQFFTSGPLIDGVLGMKAYGSLAKREKDDPQNSTTTDTGETPRIEGFSSRDGNVEFAWTPNQNHDFTAGYGFDRQDRDSDSLDKNRLERQNYSVSHNGRWDYGTSELKYYGEKVENKNPGNSSPITSESNTVDGKYTLPLTAINQFLTVGGEMRHDKMSDAVNLTGGTSSKTSASQYALFVEDEWRIFEPLALTTGVRMDDHETYGEHWSPRAYLVYNATDTVTVKGGWATAFKAPSLLQLSPDWTSNSCRGACKIVGSPDLKPETSESWELGLYYMGEEGWLEGVESSVTVFRNDVKDRISISRTSDVNAAPGYQNFVGFETGANGRRIPVFSYYNVNKARIQGVETELKIPFNDEWKLSINYTYNDGRDVSNGENKPLSDLPFHTANGTLDWKPLALEDWSMYMSGHYTGQKRADSATAKTPGGYTIWNTGAAWQVTKDVKLRAGVLNLGDKDLSRDDYSYNEDGRRYFMAVDYRF
chain 2: ASGRDIAMAIGTLSGQFVAGGIGAAAGGVAGGAIYDYASTHKPNPAMSPSGLGGTIKQKPEGIPSEAWNYAAGRLCNWSPNNLSDVCL

- Variants of: B1
- protocol.details: BLI
- experimental.context: with Microcin V (MccV), 100 nM biotinylated MccV loaded onto streptavidin-coated sensors, probed with dilutions of Cir, PBS-T
pKd: −log10 of the molar value.
// reported pKd per item
result.type: pKd

• chain 1 R411E R465E = 5.80
• chain 1 C410A = 6.26
